tested on: LL/2 cells; experiment: Proliferation assay; type: cell-based; conditions: Mus musculus, LL/2, read-out: apparent IC50 proliferation
parameter-measured: pIC50
Answers are plain numbers, as −log10 of the molar value.

// query Any idea what its pIC50 is? The molecule is COc1ccc(C(O)COc2ccc(-c3csc(-c4ccc(OCC(O)c5ccc(OC)c(OC)c5)cc4)n3)cc2)cc1OC (stereo not shown) [EVT‐701]
// result 6.53

###

tested on: H460 cells; test: Proliferation assay; assay type: cell-based, human; conditions: Homo sapiens, NCI-H460, read-out: apparent IC50 proliferation
parameter-measured: pIC50
Answers are plain numbers, as −log10 of the molar value.

// query Any idea what its pIC50 is? The molecule is COc1ccc(C(O)COc2ccc(-c3csc(-c4ccc(OCC(O)c5ccc(OC)c(OC)c5)cc4)n3)cc2)cc1OC (stereo not shown)
// result 7.17

###

Target: OATP1B1 (Homo sapiens, UniProt Q9Y6L6)
Sequence (Q9Y6L6 1-691): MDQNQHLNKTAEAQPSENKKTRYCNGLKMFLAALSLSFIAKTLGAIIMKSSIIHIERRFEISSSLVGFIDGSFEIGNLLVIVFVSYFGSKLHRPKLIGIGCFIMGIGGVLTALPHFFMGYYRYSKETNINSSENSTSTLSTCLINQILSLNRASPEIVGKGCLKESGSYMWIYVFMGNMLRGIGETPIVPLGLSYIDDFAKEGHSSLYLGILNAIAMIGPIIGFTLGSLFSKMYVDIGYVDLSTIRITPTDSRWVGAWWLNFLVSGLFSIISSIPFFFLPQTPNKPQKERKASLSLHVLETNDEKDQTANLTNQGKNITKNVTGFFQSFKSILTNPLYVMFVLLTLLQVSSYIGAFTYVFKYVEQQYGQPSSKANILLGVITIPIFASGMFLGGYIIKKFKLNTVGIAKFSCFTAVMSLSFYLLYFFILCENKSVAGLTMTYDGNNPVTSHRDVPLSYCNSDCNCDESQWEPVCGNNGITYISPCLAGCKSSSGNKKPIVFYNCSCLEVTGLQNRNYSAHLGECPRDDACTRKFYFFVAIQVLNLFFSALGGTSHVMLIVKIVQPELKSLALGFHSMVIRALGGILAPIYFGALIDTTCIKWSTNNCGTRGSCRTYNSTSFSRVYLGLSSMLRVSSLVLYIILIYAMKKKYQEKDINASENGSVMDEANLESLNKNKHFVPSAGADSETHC
parameter-measured: pIC50
Give bare numbers, as −log10 of the molar value.

// query Any idea what its pIC50 is? The molecule is COc1ccc(C(O)COc2ccc(-c3csc(-c4ccc(OCC(O)c5ccc(OC)c(OC)c5)cc4)n3)cc2)cc1OC (stereo not shown)
// result 5.96

###

assay: Tissue distribution after single oral administration; format: in vivo, C57BL/6J mice; details: male, C57BL/6J, mouse, kidney, 30 mg/kg
parameter-measured: Kp

// query Any idea what its Kp is? The molecule is COc1ccc(C(O)COc2ccc(-c3csc(-c4ccc(OCC(O)c5ccc(OC)c(OC)c5)cc4)n3)cc2)cc1OC (stereo not shown)
// result 4.5

###

target: OATP1B3 (Homo sapiens, UniProt Q9NPD5)
Sequence (Q9NPD5 whole entry): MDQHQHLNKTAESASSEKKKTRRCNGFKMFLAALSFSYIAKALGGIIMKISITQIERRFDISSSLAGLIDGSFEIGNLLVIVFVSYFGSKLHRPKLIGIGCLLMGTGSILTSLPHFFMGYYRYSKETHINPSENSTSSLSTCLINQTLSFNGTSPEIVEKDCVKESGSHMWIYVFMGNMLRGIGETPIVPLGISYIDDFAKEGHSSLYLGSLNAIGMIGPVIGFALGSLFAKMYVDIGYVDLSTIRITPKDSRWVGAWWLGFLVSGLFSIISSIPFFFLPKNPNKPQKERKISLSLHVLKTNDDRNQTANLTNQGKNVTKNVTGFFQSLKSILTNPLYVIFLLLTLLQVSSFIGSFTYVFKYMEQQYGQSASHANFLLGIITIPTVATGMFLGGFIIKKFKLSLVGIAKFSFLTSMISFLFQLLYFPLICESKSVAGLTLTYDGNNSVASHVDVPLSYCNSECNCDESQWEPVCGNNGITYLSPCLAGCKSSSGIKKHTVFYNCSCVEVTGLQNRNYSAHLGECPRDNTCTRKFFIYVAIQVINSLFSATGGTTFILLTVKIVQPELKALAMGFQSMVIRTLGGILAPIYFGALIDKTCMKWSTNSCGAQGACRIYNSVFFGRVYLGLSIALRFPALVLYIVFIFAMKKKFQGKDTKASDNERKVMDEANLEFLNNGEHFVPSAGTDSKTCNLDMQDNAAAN
parameter-measured: IC50 (nM)
Numbers only, in nM.

// query Please state recorded IC50 (tested on OATP1B3 (Homo sapiens, UniProt Q9NPD5)) of COc1ccc(C(O)COc2ccc(-c3csc(-c4ccc(OCC(O)c5ccc(OC)c(OC)c5)cc4)n3)cc2)cc1OC (stereo not shown)
// result 2400

###

assay: Tissue distribution after single oral administration; type: in vivo, C57BL/6J mice; conditions: male, C57BL/6J, mouse, brain, 30 mg/kg
parameter-measured: Kp
One number for each entry.

// query Any idea what its Kp is? The compound is COc1ccc(C(O)COc2ccc(-c3csc(-c4ccc(OCC(O)c5ccc(OC)c(OC)c5)cc4)n3)cc2)cc1OC (stereo not shown)
// result 0.25

###

Target: OAT1 (Homo sapiens, UniProt Q4U2R8)
Sequence (Q4U2R8 1-563): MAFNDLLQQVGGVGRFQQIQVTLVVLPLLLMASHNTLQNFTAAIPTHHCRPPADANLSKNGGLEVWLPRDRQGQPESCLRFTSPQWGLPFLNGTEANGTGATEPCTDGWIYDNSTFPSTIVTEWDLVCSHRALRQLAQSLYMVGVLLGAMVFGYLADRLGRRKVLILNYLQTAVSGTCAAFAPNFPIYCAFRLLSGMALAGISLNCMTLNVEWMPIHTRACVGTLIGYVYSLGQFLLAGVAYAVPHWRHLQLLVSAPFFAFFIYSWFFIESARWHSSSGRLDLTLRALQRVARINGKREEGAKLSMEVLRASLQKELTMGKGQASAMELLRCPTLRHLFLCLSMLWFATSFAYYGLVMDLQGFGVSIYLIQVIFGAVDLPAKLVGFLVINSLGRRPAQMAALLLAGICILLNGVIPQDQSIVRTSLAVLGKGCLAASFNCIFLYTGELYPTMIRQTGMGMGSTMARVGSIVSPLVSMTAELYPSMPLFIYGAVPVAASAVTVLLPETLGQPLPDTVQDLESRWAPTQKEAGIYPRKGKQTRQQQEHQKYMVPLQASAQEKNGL
parameter-measured: IC50

// query Any idea what its IC50 is? The compound is COc1ccc(C(O)COc2ccc(-c3csc(-c4ccc(OCC(O)c5ccc(OC)c(OC)c5)cc4)n3)cc2)cc1OC (stereo not shown)
// result > 30 µM

###

assay: Tissue distribution after single oral administration; format: in vivo, C57BL/6J mice; conditions: male, C57BL/6J, mouse, liver, 30 mg/kg
parameter-measured: Kp

// query Any idea what its Kp is? The molecule is COc1ccc(C(O)COc2ccc(-c3csc(-c4ccc(OCC(O)c5ccc(OC)c(OC)c5)cc4)n3)cc2)cc1OC (stereo not shown) [EVT‐701]
// result 5.9

###

biological target: MRP2 (Homo sapiens, UniProt Q92887)
Sequence (Q92887 whole entry, species assumed): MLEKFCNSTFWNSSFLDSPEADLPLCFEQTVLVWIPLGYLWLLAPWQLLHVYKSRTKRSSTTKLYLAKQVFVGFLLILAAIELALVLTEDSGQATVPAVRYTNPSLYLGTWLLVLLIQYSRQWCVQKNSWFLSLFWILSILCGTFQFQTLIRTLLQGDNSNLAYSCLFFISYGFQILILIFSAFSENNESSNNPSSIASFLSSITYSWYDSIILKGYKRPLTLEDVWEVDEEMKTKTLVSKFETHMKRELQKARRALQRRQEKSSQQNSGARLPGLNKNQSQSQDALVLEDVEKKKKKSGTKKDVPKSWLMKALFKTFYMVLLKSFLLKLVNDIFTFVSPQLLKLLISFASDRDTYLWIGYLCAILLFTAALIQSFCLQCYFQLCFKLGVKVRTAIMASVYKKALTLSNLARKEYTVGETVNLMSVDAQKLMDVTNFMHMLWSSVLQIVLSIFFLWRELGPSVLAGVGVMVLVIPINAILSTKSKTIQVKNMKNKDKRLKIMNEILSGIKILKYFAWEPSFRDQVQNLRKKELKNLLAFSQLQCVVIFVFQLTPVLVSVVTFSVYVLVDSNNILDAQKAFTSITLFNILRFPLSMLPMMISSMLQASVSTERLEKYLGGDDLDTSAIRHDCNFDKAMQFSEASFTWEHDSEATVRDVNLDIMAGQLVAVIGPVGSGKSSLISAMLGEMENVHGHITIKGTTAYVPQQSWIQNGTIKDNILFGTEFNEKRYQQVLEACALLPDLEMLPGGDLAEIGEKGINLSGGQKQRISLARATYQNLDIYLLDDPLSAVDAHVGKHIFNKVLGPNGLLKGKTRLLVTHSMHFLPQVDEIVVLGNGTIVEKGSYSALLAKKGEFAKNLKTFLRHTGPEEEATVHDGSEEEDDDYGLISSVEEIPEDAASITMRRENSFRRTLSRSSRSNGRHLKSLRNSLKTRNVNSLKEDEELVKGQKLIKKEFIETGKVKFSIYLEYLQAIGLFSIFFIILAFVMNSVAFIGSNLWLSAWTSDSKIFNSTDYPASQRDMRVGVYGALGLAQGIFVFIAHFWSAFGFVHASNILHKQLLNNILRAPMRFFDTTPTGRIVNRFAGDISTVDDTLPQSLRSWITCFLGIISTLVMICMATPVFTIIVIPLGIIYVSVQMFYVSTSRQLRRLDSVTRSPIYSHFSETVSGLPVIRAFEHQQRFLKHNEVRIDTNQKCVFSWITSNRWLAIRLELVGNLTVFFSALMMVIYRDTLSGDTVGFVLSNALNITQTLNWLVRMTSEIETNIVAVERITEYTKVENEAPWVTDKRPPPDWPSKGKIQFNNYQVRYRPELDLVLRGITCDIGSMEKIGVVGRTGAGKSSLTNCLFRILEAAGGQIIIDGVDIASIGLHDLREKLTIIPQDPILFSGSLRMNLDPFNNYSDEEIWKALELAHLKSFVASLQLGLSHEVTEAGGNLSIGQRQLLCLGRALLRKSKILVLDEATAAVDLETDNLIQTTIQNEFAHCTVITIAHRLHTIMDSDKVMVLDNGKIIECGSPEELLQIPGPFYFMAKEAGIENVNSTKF
pIC50: −log10 of the molar value.
parameter-measured: pIC50

// query Any idea what its pIC50 is? The molecule is COc1ccc(C(O)COc2ccc(-c3csc(-c4ccc(OCC(O)c5ccc(OC)c(OC)c5)cc4)n3)cc2)cc1OC (stereo not shown)
// result < 4.52

###

assay: Tissue distribution after single oral administration; type: in vivo, C57BL/6J mice; details: male, C57BL/6J, mouse, lung, 30 mg/kg
parameter-measured: Kp
Numbers only.

// query Any idea what its Kp is? The compound is COc1ccc(C(O)COc2ccc(-c3csc(-c4ccc(OCC(O)c5ccc(OC)c(OC)c5)cc4)n3)cc2)cc1OC (stereo not shown)
// result 2.3

###

molecular target: Complex I purified from bovine heart (Bos taurus, UniProt P03887+P17694+P42026); experiment: MitoTox Complex I OxPhos Activity Assay
Sequence (P17694 34-463): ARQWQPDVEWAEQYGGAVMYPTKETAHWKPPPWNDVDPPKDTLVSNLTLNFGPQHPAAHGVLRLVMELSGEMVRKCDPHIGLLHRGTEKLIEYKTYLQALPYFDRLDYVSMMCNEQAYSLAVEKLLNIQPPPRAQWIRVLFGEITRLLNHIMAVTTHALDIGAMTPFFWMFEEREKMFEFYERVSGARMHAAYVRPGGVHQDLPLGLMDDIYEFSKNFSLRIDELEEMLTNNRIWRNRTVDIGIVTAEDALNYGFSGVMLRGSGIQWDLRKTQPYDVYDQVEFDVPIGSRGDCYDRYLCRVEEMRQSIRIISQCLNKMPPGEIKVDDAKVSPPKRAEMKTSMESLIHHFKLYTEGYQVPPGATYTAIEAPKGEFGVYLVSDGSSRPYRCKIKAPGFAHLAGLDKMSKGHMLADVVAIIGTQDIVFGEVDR
Sequence (P42026 38-216): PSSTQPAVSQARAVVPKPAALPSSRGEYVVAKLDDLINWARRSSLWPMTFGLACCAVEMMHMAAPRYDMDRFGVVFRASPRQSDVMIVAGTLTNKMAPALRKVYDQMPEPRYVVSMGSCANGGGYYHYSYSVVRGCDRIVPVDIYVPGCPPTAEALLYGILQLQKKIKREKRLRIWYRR
Sequence (P03887 whole entry): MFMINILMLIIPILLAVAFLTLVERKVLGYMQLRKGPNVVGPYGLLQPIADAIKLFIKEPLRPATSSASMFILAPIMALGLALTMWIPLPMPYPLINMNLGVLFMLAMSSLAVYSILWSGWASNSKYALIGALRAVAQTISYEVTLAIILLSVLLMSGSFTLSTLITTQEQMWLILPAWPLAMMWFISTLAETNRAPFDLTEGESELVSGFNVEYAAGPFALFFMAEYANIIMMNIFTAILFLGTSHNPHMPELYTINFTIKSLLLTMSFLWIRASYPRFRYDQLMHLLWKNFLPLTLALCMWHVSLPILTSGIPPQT
parameter-measured: IC50 (nM)
Numbers only, in nM.

// query Please state recorded IC50 (tested on Complex I purified from bovine heart (Bos taurus, UniProt P03887+P17694+P42026)) of COc1ccc(C(O)COc2ccc(-c3csc(-c4ccc(OCC(O)c5ccc(OC)c(OC)c5)cc4)n3)cc2)cc1OC (stereo not shown)
// result 300
